Data origin: PubChem BioAssay (NCI)

- Tested on: SF-295 CNS
- assay-text: NCI-60 one-dose screen, 48 h (100 = growth as untreated, 0 = no growth, -100 = all killed)
- condition-set: 10 µM unless noted
Compounds without any hit were thinned out: in the full panel of roughly 83,000, 20% have a hit.
Would you mind classing the entries by growth? Ranges: low group (below 60%), middle group (60% to below 90%), high group (90% or more)

These solved cases illustrate the format of a correct answer.
compound | label-class
CCN(CC)CCNC(=O)c1c(C)[nH]c(/C=C2\C(=O)Nc3cc(NC(=O)NC(=O)c4ccc(OC)cc4F)ccc32)c1C | high group
CC(C)(C)OC(=O)N1CCN(CCn2cc(C(F)(F)F)c3c(Cl)ncnc32)CC1 | high group
NC(=NCCCOc1ccc(F)cc1)Nc1ccc(Cl)c(Cl)c1 | middle group
FC(F)(F)c1cn(CCN2CCOCC2)c2ncnc(Cl)c12 | high group
Fc1ccc(Nc2ncnc3ccc(-c4cn[nH]c4)cc23)cc1Cl | low group
COc1ccc(-c2nn(-c3ccc(NC(=O)Nc4ccc(Cl)c(Cl)c4)cc3)cc2-c2ccncc2)cc1Cl | low group
COc1cc(NC(C)CCCN2C(=O)c3ccccc3C2=O)c2nc(C)ccc2c1OC (centres undefined) | high group
CC1(C)Cc2c(Br)c(Br)c(Br)c(OCC(O)CN3CCN(c4ccccn4)CC3)c2O1 (centres undefined) | middle group
Cc1ccc(NC(=O)CN2CCOCC2)cc1Cl | high group
O=C(Nc1ccc(-n2ccc3c(NC(=O)c4ccccc4)nccc32)cc1)Nc1cccc(C(F)(F)F)c1 | low group

Lab note: which band did CN(C)C(=O)Nc1nc2cc(Cl)c(Cl)cc2[nH]1 land in?
low group

Note: place this compound into its band. Item: COc1ccc(/C=N/C2=NNC(C)(c3ccccc3O)N2C(Cc2c[nH]c3ccccc23)C(=O)O)cc1 (centres undefined)
low group

Any idea which band CCN1CCN(Cc2ccc(NC(=O)Nc3cccc(-n4ccc5c(NC(=O)c6ccccc6)nccc54)c3)cc2C(F)(F)F)CC1 is in?
low group

Using the reported growth, which band applies to Cn1c(I)c(C#C[Si](C)(C)C)c(=O)[nH]c1=O ?
high group

Entry COc1ccc(CNc2nc3ccccc3c3c(=O)c4ccccc4sc23)cc1OC belongs to which category?
middle group
